All values here come from the array DNA melting data of Ke et al. (doi:10.1101/2024.01.08.574731).

- experimental.details: folding enthalpy; higher = less favourable; fluorescence melt of hairpins on a sequencing array, two-state fit
- cond: sodium 0.088 M
readout.type: folding enthalpy
Answer format reminder: number followed by unit.

>>> observed_value("GACTGGGCGAAAGCCGTC (((..(((....))))))")
"-10.4 kcal/mol"
>>> observed_value("GATCGGCTTACCGATC ((((((....))))))")
"-35.4 kcal/mol"
>>> observed_value("GGCGTCGAAAGACTTGCC ((((((....)))..)))")
"-24.6 kcal/mol"
>>> observed_value("GATCTTGCAAAAGATC ((((((....))))))")
"-37.5 kcal/mol"
>>> observed_value("GATCGCGAGCGCGATC ((((((....))))))")
"-35.4 kcal/mol"

Next up:
Recall and state the measured folding enthalpy for GCTTTGCGAAAGCGGAGC (((..((....))..))) .
-17.3 kcal/mol
